Sequence of the target: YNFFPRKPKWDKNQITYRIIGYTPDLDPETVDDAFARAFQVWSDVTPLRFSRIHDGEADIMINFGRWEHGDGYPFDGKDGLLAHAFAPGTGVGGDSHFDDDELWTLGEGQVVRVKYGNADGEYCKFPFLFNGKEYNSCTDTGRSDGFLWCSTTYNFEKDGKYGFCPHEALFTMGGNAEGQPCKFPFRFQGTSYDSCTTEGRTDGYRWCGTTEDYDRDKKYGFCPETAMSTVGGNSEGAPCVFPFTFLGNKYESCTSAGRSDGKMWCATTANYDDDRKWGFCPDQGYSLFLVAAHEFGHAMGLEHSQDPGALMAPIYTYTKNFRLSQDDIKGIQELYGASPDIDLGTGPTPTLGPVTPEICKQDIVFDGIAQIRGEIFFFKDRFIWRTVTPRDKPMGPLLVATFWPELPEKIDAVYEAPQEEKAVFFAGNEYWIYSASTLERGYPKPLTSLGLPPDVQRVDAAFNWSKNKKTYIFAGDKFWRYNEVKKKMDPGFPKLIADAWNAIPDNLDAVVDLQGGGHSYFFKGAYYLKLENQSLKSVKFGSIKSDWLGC
Here the recorded IC50 is given for each entry.

compound	IC50 / pM
O=C(O)[C@@H](Cc1c[nH]c2ccc(F)cc12)NS(=O)(=O)c1ccc(-c2ccc(N3CCCC3)cc2)s1 [Compound A-9]	137
COc1ccc(-n2nnc(-c3ccc(S(=O)(=O)N[C@H](Cc4c[nH]c5ccc(OC)cc45)C(=O)O)cc3)n2)cc1 [Compound A-11]	5770
O=C(O)[C@H](Cc1c[nH]c2ccc(F)cc12)NS(=O)(=O)c1ccc(-c2nnn(-c3ccccc3)n2)cc1 [Compound A-12]	85800
Cc1ccc(C#Cc2ccc(S(=O)(=O)N[C@H](Cc3c[nH]c4cccc(O)c34)C(=O)O)s2)cc1 [Compound A-4]	768
COc1ccc2[nH]cc(C[C@@H](NS(=O)(=O)c3ccc(-c4ccc(N(C)C)cc4)s3)C(=O)O)c2c1 [Compound A-8]	617
